tested on: SK-MES-1; test: Cancer cell growth inhibition (CellTiter-Glo), SK-MES-1; format: cell-based, Human; conditions: Homo sapiens; Lung Cancer, SK-MES-1, 72 h treatment
Task for the reader: assign each of the following compounds its reported IC50.
Numbers only, in µM.

Some compounds with recorded IC50:
compound="O=C(CCCCCNC(=O)c1[nH]c(-c2ccccc2)cc1-c1ccc(O)cc1)NO [Example 1]" observable=IC50 measured_result=2.88
compound="O=C(CCCCCNC(=O)c1[nH]c(-c2ccc(O)cc2)cc1-c1ccoc1)NO [Example 5]" observable=IC50 measured_result=3.62
compound="O=C(CCCCCNC(=O)c1[nH]c(-c2ccc(O)cc2)cc1-c1ccccc1)NO [Example 2]" observable=IC50 measured_result=4.8

Continue with the compound presented below.
What value of IC50 has been reported for the following compound? O=C(CCCCCNC(=O)c1[nH]c(-c2ccc(O)cc2)cc1-c1ccsc1)NO [Example 6] 3.7

----------
Task for the reader: assign each of the following molecules its reported IC50.
test system: SW620; assay: Cancer cell growth inhibition (CellTiter-Glo), SW620; assay type: cell-based; settings: Homo sapiens, SW-620; Colorectal Cancer, SW620, 72 h treatment
Numbers only, in µM.

molecule=O=C(CCCCCNC(=O)c1[nH]c(-c2ccc(O)cc2)cc1-c1ccoc1)NO measured_result=0.3
molecule=O=C(CCCCCNC(=O)c1[nH]c(-c2ccccc2)cc1-c1ccc(O)cc1)NO measured_result=1.31
molecule=O=C(CCCCCNC(=O)c1[nH]c(-c2ccc(O)cc2)cc1-c1ccccc1)NO measured_result=1.48
molecule="CO[C@@]12[C@H](COC(N)=O)C3=C(C(=O)C(C)=C(N)C3=O)N1C[C@@H]1N[C@@H]12 [Mitomycin, reference compound]" measured_result=1.22

Continue with the molecule presented below.
What value of IC50 has been reported for the following molecule? O=C(CCCCCNC(=O)c1[nH]c(-c2ccc(O)cc2)cc1-c1ccsc1)NO 0.67

----------
Task for the reader: assign each of the following compounds its reported IC50.
system: NCI-N87; assay: Cancer cell growth inhibition (CellTiter-Glo), NCI-N87; assay type: cell-based, Human; conditions: Homo sapiens; Gastric Cancer, NCI-N87, 72 h treatment
Numbers only, in µM.

structure_string=O=C(CCCCCNC(=O)c1[nH]c(-c2ccccc2)cc1-c1ccc(O)cc1)NO units_label=µM measured_result=1
structure_string=O=C(CCCCCNC(=O)c1[nH]c(-c2ccc(O)cc2)cc1-c1ccsc1)NO units_label=µM measured_result=0.48
structure_string=O=C(CCCCCNC(=O)c1[nH]c(-c2ccc(O)cc2)cc1-c1ccccc1)NO units_label=µM measured_result=1.24

Continue with the compound presented below.
What value of IC50 has been reported for the following compound? O=C(CCCCCNC(=O)c1[nH]c(-c2ccc(O)cc2)cc1-c1ccoc1)NO 0.16

----------
system: DLD-1; assay: Cancer cell growth inhibition (CellTiter-Glo), DLD-1; format: cell-based, Human; details: Colorectal Cancer, DLD-1, 72 h treatment
observable: IC50 (µM)
Answers are plain numbers, in µM.

Please provide the recorded IC50 for N.N.[Cl][Pt][Cl] [Cisplatin, reference compound] , tested on DLD-1. 11.3

----------
Task for the reader: assign each of the following compounds its reported IC50.
target: Human HDAC5 (Homo sapiens); construct: Full length with Nterminal GST tag, MW=150 kDa; GST (N); purchased BioMol, Hamburg, Germany; host or cells: Sf9 cells, baculovirus; assay: In vitro HDAC5 inhibition, fluorogenic peptide assay; format: biochemical; conditions: read-out: IC50 (nM) of enzyme activity HDAC5
Sequence (Q9UQL6 1-1123 isoform Q9UQL6-3): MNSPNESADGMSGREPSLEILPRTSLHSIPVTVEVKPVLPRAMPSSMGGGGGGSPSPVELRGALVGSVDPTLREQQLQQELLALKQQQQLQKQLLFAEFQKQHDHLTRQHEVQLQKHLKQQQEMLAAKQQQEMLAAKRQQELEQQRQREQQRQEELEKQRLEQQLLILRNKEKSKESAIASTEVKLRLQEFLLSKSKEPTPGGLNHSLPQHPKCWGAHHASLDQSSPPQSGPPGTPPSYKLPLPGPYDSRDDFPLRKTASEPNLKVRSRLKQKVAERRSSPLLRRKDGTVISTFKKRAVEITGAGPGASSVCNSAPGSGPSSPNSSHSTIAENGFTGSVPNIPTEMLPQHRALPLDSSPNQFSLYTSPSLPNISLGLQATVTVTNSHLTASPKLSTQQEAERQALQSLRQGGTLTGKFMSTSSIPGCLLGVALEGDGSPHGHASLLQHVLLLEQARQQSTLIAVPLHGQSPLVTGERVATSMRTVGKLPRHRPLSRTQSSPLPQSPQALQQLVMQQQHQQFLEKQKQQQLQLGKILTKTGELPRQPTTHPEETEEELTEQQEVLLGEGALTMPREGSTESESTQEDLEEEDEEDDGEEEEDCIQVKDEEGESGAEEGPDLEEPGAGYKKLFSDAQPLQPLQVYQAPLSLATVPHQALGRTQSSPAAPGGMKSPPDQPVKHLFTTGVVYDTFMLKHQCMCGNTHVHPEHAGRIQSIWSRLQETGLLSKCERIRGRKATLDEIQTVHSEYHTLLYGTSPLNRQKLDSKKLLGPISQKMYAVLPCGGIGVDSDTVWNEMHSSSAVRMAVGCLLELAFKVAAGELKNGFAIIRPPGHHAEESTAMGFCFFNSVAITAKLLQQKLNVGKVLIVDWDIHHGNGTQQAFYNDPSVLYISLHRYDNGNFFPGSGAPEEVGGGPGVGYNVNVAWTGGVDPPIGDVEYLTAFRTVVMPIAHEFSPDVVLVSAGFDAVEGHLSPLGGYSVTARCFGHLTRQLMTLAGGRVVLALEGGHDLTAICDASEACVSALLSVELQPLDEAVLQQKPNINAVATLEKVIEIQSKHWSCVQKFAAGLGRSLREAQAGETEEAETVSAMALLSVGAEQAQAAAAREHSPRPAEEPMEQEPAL
Numbers only, in nM.

compound=O=C(CCCCCNC(=O)c1[nH]c(-c2ccc(O)cc2)cc1-c1ccsc1)NO units_label=nM measured_result=43
compound=O=C(CCCCCNC(=O)c1[nH]c(-c2ccc(O)cc2)cc1-c1ccoc1)NO units_label=nM measured_result=14

What value of IC50 has been reported for the following compound? COc1ccc(-c2cc(-c3ccccc3)[nH]c2C(=O)NCCCCCC(=O)NO)cc1 [Compound A, reference compound] 655
